# Study target: M7
# Measurement notes: ELISA on coated antigen, column M7
Measurement name: absorbance at 490 nm
The answer should be a number; do not append a unit.

In the examples that follow, each entry is paired with its recorded absorbance at 490 nm.
* PDL1-31E6 (antibody, V domains shown, Only FR/CDR pieces are tied to the clone) VH: QVQLVQSGAEVKKPGSSVKVSCKASGGTFSSYAISWVRQAPGQGLEWMGGIIPIFGTANYAQKFQGRVTITADESTSTAYMELSSLRSEDTAVYYCARGGRSFGAFDSWGQGALVTVSS VL: DIQMTQSPATLSLSPGERATLSCTASQSISSYLAWYQQKPGQAPRLLIYDSSNRATGIPARFSGSGSGTAFTLTISSLEPEDFAVYFCQQRGQWPLTFGGGTKVDIK | 2.5
* PDL1-31B7 (antibody, V domains shown, Only FR/CDR pieces are tied to the clone) VH: QVQLVESGAEVKKPGSSVKVSCKASGGTFSSYAISWVRQAPGQGLEWMGRIIPILGIANYAQKFQGRVTITADKSTSTAYMELSSLRSEDTAVYYCARASSGYSVGAFDIWGQGTMVTVSS VL: QLVLTQPPSVSAPPGQKVTISCSGSSSNIGNNYVSWYQQLPGTAPKLLIYDNNERPSGIPDRFSASKSGTSATLGISGLQTGDEADYYCGTWDSSLSAGVFGGGTKLTVL | 3

Turning to the following binder.
The reported value for PDL1-22B10 (antibody, V domains shown, Only FR/CDR pieces are tied to the clone) VH: QVQLVQSGAEVKKPGSSVKVSCRASGGTFSSYAISWVRQAPGQGLEWMGRIIPILGIANYAQKFQGRVTITADKSTSTAYMELSSLRSEDTAVYYCARDFVLSGSATVFDPWGQGTLVTVSS VL: QFVLTQPPSVSGAPGQRVTISCTGSSTNIGAGYDVHWYQQLPGKAPKVVIYGNSNRPSGVLDRFSASKSATSASLAITGLQAEDEADYYCQSYDSSLSGYVFGTGTKVTVL in terms of absorbance at 490 nm is 2.5
